This collection of values is drawn from the RNAGym collection of RNA variant scans (doi:10.7554/elife.80360).

Measured self-cleavage, listed per entry for reference.
B1: CPEB3 Ribozyme (parent)
chain: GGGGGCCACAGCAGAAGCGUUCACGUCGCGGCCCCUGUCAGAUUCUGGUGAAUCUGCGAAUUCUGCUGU

# Variants of: B1
# PROCEDURE TEXT: self-cleavage, relative activity (ratio to wild type); higher = more cleavage; co-transcriptional
VALUE TYPE: self-cleavage

MUTATION | RECORDED VALUE
C34G C45U | 0.746
A51C C63U | 0.942
A15C G28A | 0.138
G11A U38G | 0.142
G2C A15U | 0.0423
A16C G17C | 0.0992
G2A G58A | 0.0846
C22U C33A | 0.176
G3A G50A | 0.645
G1U U69A | 0.194
G3U G19U | 0.0853
G19U U43C | 0.333
C22U G25C | 0.153
A13U G37C | 0.186
G4A G50A | 0.839
C32G U36G | 0.191
U38C A60G | 0.78
G41A U62C | 0.383
A15U C18G | 0.186
G4C G50C | 0.621
G1C U53A | 0.225
G2U C7G | 0.0573
A42U G48C | 0.947
G31C G68C | 0.414
C6U C27A | 0.369
A15U A23U | 0.95
G65U U67G | 0.92
G11U U61A | 0.412
G3U G31A | 0.074
G14C U69G | 0.726
G5C A10G | 0.289
U46A G58A | 0.93
G4C C66A | 0.396
U43G A52U | 0.992
C24U G30A | 0.389
G5C G47C | 0.246
G2C U64G | 0.137
C29A U64G | 0.292
G5A U43A | 0.721
